# tested-system: human immunoglobulin IgG
result-type: Ratio of the remaining amount of antibody by SPR sensor gram at pH 4.0 (%)

OXADac-PG17 (designed binder) MGAGTPVTAPLAGTIWKVLASEGQTVAAGEVLLILEAMKMETEIRAAQAGTVRGIAVKAGDAVAVGDTLMTLAGSGSDLYDDDDKGIITSLYKKAGSAAAPFTDTYKLILNGKRLKGETITEAVDAATAEKVFKQYANEHGVDGEWTYDPETKTFTVTE : 86
OXADac-PG15 (designed binder) MGAGTPVTAPLAGTIWKVLASEGQTVAAGEVLLILEAMKMETEIRAAQAGTVRGIAVKAGDAVAVGDTLMTLAGSGSDLYDDDDKGIITSLYKKAGSAAAPFTDTYKLILNGKRLKGETTTEAVDAATAEKVFKQYANEHGVDGEWTYDPETKTFTVTE : 90

1. OXADac-PG07 (designed binder) MGAGTPVTAPLAGTIWKVLASEGQTVAAGEVLLILEAMKMETEIRAAQAGTVRGIAVKAGDAVAVGDTLMTLAGSGSDLYDDDDKGIITSLYKKAGSAAAPFTDTYKLILNGKTLKGETTTEAVDAATAEKVFKQYANEHGVDGEWTYDPETKTFTVTE
2. OXADac-PG19 (designed binder) MGAGTPVTAPLAGTIWKVLASEGQTVAAGEVLLILEAMKMETEIRAAQAGTVRGIAVKAGDAVAVGDTLMTLAGSGSDLYDDDDKGIITSLYKKAGSAAAPFTDTYKLILNGKTLKGETTTEAVDAATAEKVFKHYANEHGVHGHWTYDPETKTFTVTE
3. OXADac-PG13 (designed binder) MGAGTPVTAPLAGTIWKVLASEGQTVAAGEVLLILEAMKMETEIRAAQAGTVRGIAVKAGDAVAVGDTLMTLAGSGSDLYDDDDKGIITSLYKKAGSAAAPFTDTYKLILNGKTLKGETTTEAVDAATAEKVFKQYANEHGVHGEWTYDPETKTFTVTE
Data request: Given 3 binders, produce a descending ranking by Ratio of the remaining amount of antibody by SPR sensor gram at pH 4.0. Arrange the labels as the request states and list them.
Data returned: 1, 3, 2
